EXPERIMENTAL TARGET: Human recombinant His-tagged PFKFB3 (Homo sapiens)
Construct: His; made in house
TEST: PFKFB3 IC50 Determination Assay (in vitro kinase assay, modified ADP-Glo system)
Format: biochemical
CONDITION INFO: ATP 20 μM and fructose-6-phosphate 2 μM (Km), 25 nM PFKFB3, 2 h, rt, ADP-Glo luminescence
pIC50: −log10 of the molar value.
QUANTITY NAME: pIC50

# example entries with known answers
CS(=O)(=O)c1ccncc1Nc1cc(-c2ccc3nc(N)sc3c2)c2nccnc2c1 :: 6.00 to 9.00
Cn1nnc2cc(-c3cc(Nc4cnccc4S(C)(=O)=O)cc4nccnc34)ccc21 :: 4.00 to 5.00
CS(=O)(=O)c1ccncc1Nc1cc(-c2ccc(S(F)(F)(F)(F)F)cc2)c2nccnc2c1 :: 4.00 to 5.00

Here is another compound to look at.
Req: Consider the compound shown here: `Cn1ccc2ccc(-c3cc(Nc4cnccc4C(=O)Nc4ccccc4)cc4nccnc34)cc21` What is its recorded pIC50?
Resp: 6.00 to 9.00

----------
Attribute: IC50
EXPERIMENTAL TARGET: Human recombinant His-tagged PFKFB3 (Homo sapiens)
Construct: His; made in house
TEST: PFKFB3 IC50 Determination Assay (in vitro kinase assay, modified ADP-Glo system)
Format: biochemical
CONDITION INFO: ATP 20 μM and fructose-6-phosphate 2 μM (Km), 25 nM PFKFB3, 2 h, rt, ADP-Glo luminescence

Req: Form: Entry = Cn1ccc2ccc(-c3cc(Nc4ccccc4S(=O)(=O)NC4CCCOC4)cc4nccnc34)cc21 (centres unmarked) | System = Human recombinant His-tagged PFKFB3 (Homo sapiens) | IC50 = ____
Resp: 1 to 1000 nM

Req: Would you kindly repeat that for `Cc1cc(Br)ccc1-c1cc(Nc2cnccc2S(C)(=O)=O)cc2nccnc12` ?
Resp: 1 to 1000 nM

Req: Would you kindly repeat that for `Cn1ccc2ccc(-c3cc(Nc4ncccc4S(C)(=O)=O)cc4nccnc34)cc21` ?
Resp: 1 to 1000 nM

Req: Would you kindly repeat that for `Cn1ccc2ccc(-c3cc(Nc4c[n+]([O-])ccc4C#N)cc4nccnc34)cc21` ?
Resp: 1000 to 10000 nM

Req: Would you kindly repeat that for `Cn1nccc1-c1ccc(S(C)(=O)=O)c(Nc2cc(-c3ccc4ccn(C)c4c3)c3nccnc3c2)c1` ?
Resp: 1000 to 10000 nM

Req: Would you kindly repeat that for CC(=O)N1CCOCC1CNC(=O)c1ccncc1Nc1cc(-c2ccc3ccn(C)c3c2)c2nccnc2c1 (centres unmarked) ?
Resp: 1 to 1000 nM

----------
EXPERIMENTAL TARGET: Human recombinant His-tagged PFKFB3 (Homo sapiens, UniProt Q16875)
Construct: His
Sequence (Q16875 whole entry): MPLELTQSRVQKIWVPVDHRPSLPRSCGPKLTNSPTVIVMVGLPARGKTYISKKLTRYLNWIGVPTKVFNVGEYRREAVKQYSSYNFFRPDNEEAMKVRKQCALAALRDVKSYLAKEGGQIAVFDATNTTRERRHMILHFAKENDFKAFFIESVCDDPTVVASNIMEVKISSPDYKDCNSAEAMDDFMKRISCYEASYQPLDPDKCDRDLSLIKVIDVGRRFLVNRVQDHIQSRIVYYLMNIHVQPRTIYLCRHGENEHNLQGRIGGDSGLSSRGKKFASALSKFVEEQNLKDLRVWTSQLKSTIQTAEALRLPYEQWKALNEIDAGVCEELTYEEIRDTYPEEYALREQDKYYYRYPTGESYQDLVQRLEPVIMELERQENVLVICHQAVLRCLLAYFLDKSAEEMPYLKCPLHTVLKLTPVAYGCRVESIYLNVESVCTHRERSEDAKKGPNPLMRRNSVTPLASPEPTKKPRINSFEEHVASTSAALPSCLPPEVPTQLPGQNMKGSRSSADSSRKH
TEST: PFKFB3 IC50 Determination Assay (in vitro kinase assay, modified ADP-Glo system)
CONDITION INFO: ATP 20 μM and fructose-6-phosphate 2 μM (Km), 25 nM PFKFB3, 2 h, rt, ADP-Glo luminescence
pIC50: −log10 of the molar value.
Attribute: pIC50

# example entries with known answers
Cn1ccc2ccc(-c3cc(Nc4cncnc4C(N)=O)cc4nccnc34)cc21 [Example 149] :: 6.00 to 9.00
Cn1ccc2ccc(-c3cc(Oc4cnccc4C#N)cc4nccnc34)cc21 [Example 47] :: 6.00 to 9.00
CN(c1cc(-c2ccc3ccn(C)c3c2)c2nccnc2c1)c1cnccc1C(=O)Nc1cncnc1 [Example 125] :: 5.00 to 6.00
CN(c1cc(-c2ccc3ccn(C)c3c2)c2nccnc2c1)c1cnccc1C(N)=O [Example 95] :: 5.00 to 6.00
Cc1ccc(-c2cc(Nc3cnccc3S(C)(=O)=O)cc3nccnc23)cc1N [Example 75] :: 6.00 to 9.00

Here is another compound to look at.
Req: Consider the compound shown here: CCOc1cccc(-c2cc(Nc3cnccc3S(C)(=O)=O)cc3nccnc23)c1 [Example 129] What is its recorded pIC50?
Resp: 4.00 to 5.00

The measured values listed here are drawn from patent US20180118718A1.
